- assay_remarks: Retention time of the compound by reverse phase HPLC analysis
- Format: physicochemical
Peptide text beside a SMILES is read from it. * marks the point of attachment. Boc = CC(C)(C)OC(=O)*; NHBn = c1ccc(CN*)cc1

compound | units | Retention_time
COc1ccc(-c2nc(C[C@H](NC(=O)[C@H](CCCNC(=N)N)NC(=O)OC(C)(C)C)C(=O)N[C@@H](CCCNC(=N)N)C(=O)NCc3ccccc3)c[nH]2)cc1 | min | 18.93
CC(C)(C)OC(=O)N[C@@H](CCCNC(=N)N)C(=O)N[C@@H](Cc1c[nH]c(-c2ccccc2)n1)C(=O)N[C@@H](CCCNC(=N)N)C(=O)NCc1ccccc1 | min | 17.63
Cc1ccc(-c2nc(C[C@H](NC(=O)[C@H](CCCNC(=N)N)NC(=O)OC(C)(C)C)C(=O)N[C@@H](CCCNC(=N)N)C(=O)NCc3ccccc3)c[nH]2)cc1 | min | 19.41
COC(=O)[C@H](CCCNC(=N)N)NC(=O)[C@H](Cc1c[nH]c(-c2ccccc2)n1)NC(=O)[C@H](CCCNC(=N)N)NC(=O)OC(C)(C)C | min | 11.89
CC(C)(C)OC(=O)N[C@@H](CCCNC(=N)N)C(=O)N[C@@H](Cc1c[nH]cn1)C(=O)N[C@@H](CCCNC(=N)N)C(=O)NCc1ccccc1 (Boc-Arg-His-Arg-NHBn) | min | 16.41
CC(C)(C)OC(=O)N[C@@H](CCCNC(=N)N)C(=O)N[C@@H](Cc1c[nH]c(-c2ccc(C(C)(C)C)cc2)n1)C(=O)N[C@@H](CCCNC(=N)N)C(=O)NCc1ccccc1 | min | 24.41
COC(=O)[C@H](CCCNC(=N)N)NC(=O)[C@H](Cc1c[nH]c(-c2ccc(-c3ccccc3)cc2)n1)NC(=O)[C@H](CCCNC(=N)N)NC(=O)OC(C)(C)C | min | 18.64
COC(=O)[C@H](CCCNC(=N)N)NC(=O)[C@H](Cc1c[nH]c(-c2ccc(C(C)(C)C)cc2)n1)NC(=O)[C@H](CCCNC(=N)N)NC(=O)OC(C)(C)C | min | 20.91
COC(=O)[C@H](CCCNC(=N)N)NC(=O)[C@H](Cc1c[nH]c(-c2ccc(OC)cc2)n1)NC(=O)[C@H](CCCNC(=N)N)NC(=O)OC(C)(C)C | min | 13.59
COC(=O)[C@H](CCCNC(=N)N)NC(=O)[C@H](Cc1c[nH]c(-c2ccc(C)cc2)n1)NC(=O)[C@H](CCCNC(=N)N)NC(=O)OC(C)(C)C | min | 14.76
CC(C)(C)OC(=O)N[C@@H](CCCNC(=N)N)C(=O)N[C@@H](Cc1c[nH]c(-c2ccc(-c3ccccc3)cc2)n1)C(=O)N[C@@H](CCCNC(=N)N)C(=O)NCc1ccccc1 | min | 24.04
COC(=O)[C@H](CCCNC(=N)N)NC(=O)[C@H](Cc1c[nH]cn1)NC(=O)[C@H](CCCNC(=N)N)NC(=O)OC(C)(C)C (Boc-Arg-His-Arg-OMe) | min | 10.75

----------
- Tested on: Vero
- assay_remarks: Cytotoxicity against African green monkey Vero cells assessed as cell viability after 48 hrs by neutral red uptake assay
- Type: cell-based
- test_parameters: chlorocebus sabaeus
compounds and their reported Activity

mol | Activity
N=C(N)NCCC[C@H](NC(=O)[C@H](Cc1c[nH]c(-c2ccccc2)n1)NC(=O)[C@@H](N)CCCNC(=N)N)C(=O)NCc1ccccc1 | > 10 µg/mL
N=C(N)NCCC[C@H](NC(=O)[C@H](Cc1c[nH]c(-c2ccc(-c3ccccc3)cc2)n1)NC(=O)[C@@H](N)CCCNC(=N)N)C(=O)NCc1ccccc1 | > 10 µg/mL
CC(C)(C)OC(=O)N[C@@H](CCCNC(=N)N)C(=O)N[C@@H](Cc1c[nH]c(-c2ccc(-c3ccccc3)cc2)n1)C(=O)N[C@@H](CCCNC(=N)N)C(=O)NCc1ccccc1 | > 10 µg/mL
